Values from ChEMBL document CHEMBL1133055

- assayedTarget: Neutrophil elastase (Homo sapiens) (UniProt P08246)
- Sequence (P08246 whole entry): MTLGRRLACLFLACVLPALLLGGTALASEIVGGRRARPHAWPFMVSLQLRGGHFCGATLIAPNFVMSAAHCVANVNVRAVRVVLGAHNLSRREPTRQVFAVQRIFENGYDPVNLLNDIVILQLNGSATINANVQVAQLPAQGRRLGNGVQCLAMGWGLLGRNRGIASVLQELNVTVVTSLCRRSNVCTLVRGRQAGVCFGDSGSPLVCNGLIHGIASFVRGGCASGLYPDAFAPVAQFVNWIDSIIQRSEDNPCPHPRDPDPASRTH
- testSummary: Inhibition of human leukocyte elastase
- Parameters: unit not given here
measurementLabel: k obs / 1
Provide a numeric answer; units are not to be included.

Sample records with k obs / 1:
1. CCS(=O)(=O)ON1C(=O)c2ccc(NC(=O)CCCC(=O)OC)cc2C1=O : 220000
2. CS(=O)(=O)ON1C(=O)c2ccc(NC(=O)c3ccccc3)cc2C1=O : 25000
3. CS(=O)(=O)ON1C(=O)c2ccc(NC(=O)c3cccc4ccccc34)cc2C1=O : 25000

Q: Fill in the recorded k obs / 1 for this compound, with Neutrophil elastase (Homo sapiens) (UniProt P08246) as test system: CS(=O)(=O)ON1C(=O)c2ccc(NC(=O)CCc3ccccc3)cc2C1=O
Result: 9700

Q: Kindly state the measured k obs / 1 obtained for CS(=O)(=O)ON1C(=O)c2ccc(N)cc2C1=O with Neutrophil elastase (Homo sapiens) (UniProt P08246).
Result: 110000

Q: Record lookup: for Neutrophil elastase (Homo sapiens) (UniProt P08246), what k obs / 1 belongs to COC(=O)C(=O)Nc1ccc2c(c1)C(=O)N(OS(C)(=O)=O)C2=O ?
Result: 30000

Q: Test system Neutrophil elastase (Homo sapiens) (UniProt P08246); read-out k obs / 1; what value for CCS(=O)(=O)ON1C(=O)c2ccc(NC(=O)C(=O)OC)cc2C1=O ?
Result: 56000

Q: Observed k obs / 1 on Neutrophil elastase (Homo sapiens) (UniProt P08246) for CCS(=O)(=O)ON1C(=O)c2ccc(N)cc2C1=O , please.
Result: 60000

Q: Give recorded k obs / 1 with Neutrophil elastase (Homo sapiens) (UniProt P08246) for the following compound: CS(=O)(=O)ON1C(=O)c2ccc(NC(=O)/C=C/c3ccccc3)cc2C1=O
Result: 20000

Q: Field: k obs / 1 (Neutrophil elastase (Homo sapiens) (UniProt P08246)). Entry: COC(=O)CCCC(=O)Nc1ccc2c(c1)C(=O)N(OS(C)(=O)=O)C2=O
Result: 57000

Q: Which k obs / 1 is reported with Neutrophil elastase (Homo sapiens) (UniProt P08246) for this entry: Cc1ccc(S(=O)(=O)N[C@@H](Cc2ccccc2)C(=O)Nc2ccc3c(c2)C(=O)N(OS(C)(=O)=O)C3=O)cc1 ?
Result: 160000

Q: What value of k obs / 1 on Neutrophil elastase (Homo sapiens) (UniProt P08246) does CCS(=O)(=O)ON1C(=O)c2ccc(NC(=O)CCC(=O)OC)cc2C1=O have?
Result: 25000
